Readings of normalized growth for the listed molecules
Test: chemical genetic growth profiling, strain panel (AID 1159580);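 further: tested at 20 µM; growth read once vehicle control cultures reached saturation at 30 °C; 1 = growth at the plate median or of vehicle wells; lower values mean less growth of the strain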
Conditions: S. cerevisiae deletion strains, growth OD, locus YKL203C, strain TOR2, active compounds read low
The campaign covered roughly 5,500 compounds. About 2,000 (36%) were called active. About 18% were inconclusive and are not listed. This is one part of the list.
Number only, no unit.

>  <molecule>
O=C(NCc1ccco1)c1csc(C2COc3ccccc3O2)n1 (stereo unspecified)

>  <normalized growth>
0.851

$$$$
>  <molecule>
COc1cc(N=Cc2cc(Cl)cc(Cl)c2OC(=O)c2cc(OC)c(OC)c(OC)c2)c(OC)cc1Cl

>  <normalized growth>
0.345

$$$$
>  <molecule>
COc1cc(Cl)c(NS(=O)(=O)c2cc(Br)c(Br)s2)c(OC)c1

>  <normalized growth>
0.986

$$$$
>  <molecule>
C/C(=N/OC(=O)Nc1ccc(Cl)cc1)c1ccc2c(c1)CCO2

>  <normalized growth>
0.85

$$$$
>  <molecule>
CCOC(=O)c1c(N=Cc2cc(Br)c(Br)cc2O)sc2c1CCCC2

>  <normalized growth>
0.614

$$$$
>  <molecule>
NC(=NC(=O)c1ccc(Cl)cc1)c1cccs1

>  <normalized growth>
0.9

$$$$
>  <molecule>
COc1cc(C(=O)Oc2c(Cl)cc(Cl)cc2C=Nc2ccc([N+](=O)[O-])cc2C#N)cc(OC)c1OC

>  <normalized growth>
0.678

$$$$
>  <molecule>
COc1ccccc1NC(=O)Nc1nn(C)c2cccc(OC)c12

>  <normalized growth>
0.776

$$$$

Pending molecule:
Input line: Endpoint output: normalized growth of O=C1/C(=C/c2c(F)cccc2Cl)Cc2ccccc21 . Value?
Output line: 1.03

----------
Experiment: chemical genetic growth profiling, strain panel (AID 1159580)
Settings: S. cerevisiae deletion strains, growth OD, locus YOR061W, strain CKA2
Among all 5,500 compounds or so, about 2,000 (36%) were called active. About 18% were inconclusive and are not listed. No stated cut-off is given here; in the data, active means normalized growth mostly below about 0.91 (no sharp cut-off); inconclusive means no clear call, values can overlap the other calls; inactive means mostly above about 0.92. Some of the results follow.
Lab note: assign the record to one of y (active), n (inactive)

Input line: Entry O=C(Nc1ccc(Cl)cc1Cl)c1cnccc1C(F)(F)F : call = ?
Output line: n

----------
Experiment: chemical genetic growth profiling, strain panel (AID 1159580)
Conditions: S. cerevisiae deletion strains, growth OD, locus YER155C, strain BEM2, active compounds read low
Out of some 5,500 compounds screened, about 2,000 (36%) were called active. Inconclusive results (about 18%) are left out. The list shows a part of the results.
Listing: normalized growth of selected compounds
Keep the answer to the number alone.

Would you please look over these solved cases?
>  <structure string>
COc1cc(C(=O)O)c(O)c2c1OCO2

>  <measurement name>
normalized growth

>  <observed result>
1

$$$$
>  <structure string>
Nc1ccc(S(=O)(=O)Nc2nccs2)cc1

>  <measurement name>
normalized growth

>  <observed result>
0.996

$$$$
>  <structure string>
Nc1nccs1

>  <measurement name>
normalized growth

>  <observed result>
1

$$$$
>  <structure string>
COc1ccc(-c2cc(C(F)F)nn2-c2ccc(S(N)(=O)=O)cc2)cc1F

>  <measurement name>
normalized growth

>  <observed result>
0.998

$$$$
>  <structure string>
CCOC(=O)c1ccc(N)cc1

>  <measurement name>
normalized growth

>  <observed result>
1.01

$$$$

Input line: I am curious: what normalized growth value has been reported for CCn1cc(C(=O)O)c(=O)c2cnc(N3CCCC3)nc21 ?
Output line: 1.01

Input line: What value of measured normalized growth is listed for CCn1cc(C(=O)O)c(=O)c2ccc(C)nc21 ?
Output line: 0.951

----------
Listing of entries alongside the reported normalized growth.
Experiment: chemical genetic growth profiling, strain panel (AID 1159580)
Settings: S. cerevisiae deletion strains, growth OD, locus YNL175C, strain NOP13, active compounds read low
The campaign covered roughly 5,500 compounds. About 2,000 (36%) were called active. About 18% were inconclusive and are not listed. The list shows a part of the results.
// keep it numeric: no unit symbol after the value

>  <compound>
C[C@H](Cc1ccc2c(c1)OC(C(=O)O)(C(=O)O)O2)NC[C@H](O)c1cccc(Cl)c1

>  <observed result>
1

$$$$
>  <compound>
CC(Cc1ccc(OCC(=O)O)cc1)NCC(O)c1cccc(Cl)c1 (stereo not given)

>  <observed result>
0.984

$$$$
>  <compound>
Nc1nc(N)c2nc(CNc3ccc(C(=O)NC(CCC(=O)O)C(=O)O)cc3)cnc2n1 (stereo not given)

>  <observed result>
0.989

$$$$
>  <compound>
NC(=O)c1cnccn1

>  <observed result>
1

$$$$

Moving on to another compound below.
Input line: May I ask what normalized growth has been recorded for O=C(O)CC[C@@H](NC(=O)c1ccccc1C(=O)O)C(=O)O ?
Output line: 1

----------
Assay: chemical genetic growth profiling, strain panel (AID 1159580);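 further: tested at 20 µM; growth read once vehicle control cultures reached saturation at 30 °C; 1 = growth at the plate median or of vehicle wells; lower values mean less growth of the strain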
Conditions: S. cerevisiae deletion strains, growth OD, locus YNL207W, strain RIO2, active compounds read low
Hit rate of the full screen: of about 5,500 compounds, about 2,000 (36%) were called active. Another 18% or so got no clear call; they are omitted. This is one part of the list.
measurement name: normalized growth
Returns: the value as a bare number; no unit string appended.

>  <compound>
CCOC(=O)c1c(N=Cc2cc(Br)c(Br)cc2O)sc2c1CCCC2

>  <normalized growth>
0.969

$$$$
>  <compound>
CCCCCCCC1CCC/C1=N/OC(=O)c1cccs1 (stereo unspecified)

>  <normalized growth>
0.976

$$$$
>  <compound>
COc1cc(Cl)c(NS(=O)(=O)c2cc(Br)c(Br)s2)c(OC)c1

>  <normalized growth>
0.962

$$$$
>  <compound>
COCCOc1ccccc1NC(=S)SCCSC(=S)Nc1ccccc1OCCOC

>  <normalized growth>
0.993

$$$$
>  <compound>
O=S(=O)(Nc1cc(C(F)(F)F)ccc1F)c1cc(C(F)(F)F)ccc1Cl

>  <normalized growth>
0.937

$$$$

Please turn your attention to the following entry.
Input line: What value of normalized growth has been recorded for this entry: Cc1cc(C(=O)O/N=C(/N)c2ccc(C(C)(C)C)cc2)no1
Output line: 0.979

----------
Experiment: chemical genetic growth profiling, strain panel (AID 1159580);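 further: tested at 20 µM; growth read once vehicle control cultures reached saturation at 30 °C; 1 = growth at the plate median or of vehicle wells; lower values mean less growth of the strain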
Conditions: S. cerevisiae deletion strains, growth OD, locus YPL055C, strain LGE1, active compounds read low
Hit rate of the full screen: of about 5,500 compounds, about 2,000 (36%) were called active. Not shown: some 18% with an inconclusive outcome. Some of the results follow.
measurement name: normalized growth

// solved cases for normalized growth follow
>  <molecule>
CC(COc1ccccc1)N(CCCl)Cc1ccccc1 (centres undefined)

>  <normalized growth>
1 (inactive)

$$$$
>  <molecule>
O=C1OCCN1/N=C\c1ccc([N+](=O)[O-])o1

>  <normalized growth>
0.882 (inactive)

$$$$
>  <molecule>
Cc1onc(-c2ccccc2Cl)c1C(=O)Nc1ccc(S(=O)(=O)Nc2nccs2)cc1

>  <normalized growth>
1.05 (inactive)

$$$$

Input line: Reported normalized growth for C=CC1=C(C)/C(=C/c2[nH]c(Cc3[nH]c(/C=C4\NC(=O)C(C)=C4C=C)c(C)c3CCC(=O)O)c(CCC(=O)O)c2C)NC1=O : what is it?
Output line: 0.995 (inactive)

Input line: Sample CSc1nc2ccc(NC(=O)c3c(-c4ccccc4)noc3C)cc2s1 — what was its normalized growth?
Output line: 0.926 (inactive)

Input line: Could you tell me which normalized growth is on file for C/C=C/c1ccc(OC)cc1 ?
Output line: 1.03 (inactive)

Input line: Item O=c1[nH]cnc2ccc(Br)cc12 has what recorded normalized growth?
Output line: 0.921 (inactive)

Input line: Look at this molecule and give its reported normalized growth. O=C(O)CCS(=O)(=O)/C=C/c1ccccc1
Output line: 1.02 (inactive)

Input line: normalized growth for COS(C)(=O)=O ?
Output line: 0.968 (inactive)

Input line: Could you tell me which normalized growth is on file for S=C(NCCCn1ccnc1)Nc1cc(Cl)ccc1Cl ?
Output line: 1 (inactive)

Input line: GET /values?readout=normalized growth&item= CC(=O)N[C@@H]1[C@@H](C(O)[C@H](O)CO)O[C@](O)(C(=O)O)C[C@@H]1O (some centres undefined)
Output line: 1.02 (inactive)

Input line: Given the entry CN(C)CCCO[C@H]1[C@@H](C(O)CO)OC2OC(C)(C)O[C@@H]21 (some centres undefined) , report its measured normalized growth.
Output line: 0.954 (inactive)

----------
compounds and their reported normalized growth
Assay: chemical genetic growth profiling, strain panel (AID 1159580);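 further: tested at 20 µM; growth read once vehicle control cultures reached saturation at 30 °C; 1 = growth at the plate median or of vehicle wells; lower values mean less growth of the strain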
Settings: S. cerevisiae deletion strains, growth OD, locus YNL006W, strain LST8, active compounds read low
The whole screen tested about 5,500 compounds, of which about 2,000 (36%) were called active. Another 18% or so got no clear call; they are omitted. The list shows a part of the results.
Keep it simple and answer with nothing but the number.

Example results:
>  <compound>
O=C1/C(=C/c2c(F)cccc2Cl)Cc2ccccc21

>  <measurement name>
normalized growth

>  <observed result>
0.97

$$$$
>  <compound>
CC(=O)C(Sc1nc2ccccc2s1)C(C)=O

>  <measurement name>
normalized growth

>  <observed result>
0.901

$$$$
>  <compound>
NC(=NC(=O)c1ccc(Cl)cc1)c1cccs1

>  <measurement name>
normalized growth

>  <observed result>
0.97

$$$$
>  <compound>
COCCOc1ccccc1NC(=S)SCCSC(=S)Nc1ccccc1OCCOC

>  <measurement name>
normalized growth

>  <observed result>
0.983

$$$$
>  <compound>
N/C(=N/OC(=O)c1ccc(Cl)cc1)c1ccc(F)cc1F

>  <measurement name>
normalized growth

>  <observed result>
0.896

$$$$

Input line: # get_value(readout='normalized growth', item= COc1ccccc1NC(=O)Nc1nn(C)c2cccc(OC)c12 )
Output line: 0.933

Input line: Quick check: normalized growth of Nc1cc(-c2ccc(OC(F)(F)F)cc2)nn1-c1ccc(Cl)c(Cl)c1 ?
Output line: 1

Input line: What does the record list as normalized growth for OC(c1ccc(C(F)(F)F)cc1)c1cccc(C(F)(F)F)c1 (stereo not drawn) ?
Output line: 0.966

Input line: Need normalized growth, item CC1(C)C/C(=N/Nc2ccc(C(F)(F)F)cc2)c2cc(C(C)(C)C)c(O)c(O)c2O1
Output line: 0.975

Input line: // returns reported normalized growth for input Cc1nc(C(F)(F)F)c(C(=O)O/N=C(/N)c2ccc(Cl)cc2)s1
Output line: 0.985

Input line: I would be grateful if you could share the reported normalized growth for COc1cc(C(=O)Oc2c(Cl)cc(Cl)cc2C=Nc2cccc([N+](=O)[O-])c2)cc(OC)c1OC .
Output line: 0.995

Input line: Returns the measured normalized growth for the input compound. Input: O=C(CCSc1cccs1)Nc1cccc(C(F)(F)F)c1
Output line: 0.938

Input line: Endpoint output: normalized growth of Clc1ccc(-c2noc(CSC3=NCCN3)n2)cc1 . Value?
Output line: 0.985
